Data provenance: patent US8034796B2

- test: In-vitro membrane permeation of NAG from lecithin suspensions and pluronic organo-gel formulations across shed snakeskin
- Type: in vitro ADME, snake
- applied conditions: snake, pH 7.4; lecithin-vitamin E (1:1) suspension; read-out: permeability coefficient kp (converted)
experimental readout: Papp (×10⁻⁶ cm/s)

compound: CC(=O)N[C@H]1C(O)O[C@H](CO)[C@@H](O)[C@@H]1O (stereo partly shown)
number: 1.39
